protocol.details: protein stability index of a GFP-peptide fusion (GPS, HEK-293T) (PSI 1-6); higher = more stable;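 further: 24-mer peptide tiles fused after GFP, lentivirally expressed, FACS-sorted into six equal bins by GFP/DsRed ratio, decoded by Illumina sequencing, PSI is the read-weighted mean bin number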
assay.context: treatment: DMSO; c terminus: a fixed tail appended
measured.quantity: protein stability index
I'd appreciate a reply containing only the number, no unit.

// returns reported protein stability index for input GFTNKQLQSGQEYVFFVLAVMEHA [PTPRD] 2.95

How about NVPLSISRLTPGGKAAQAGVAVGD [PDLIM7] ? 4.05

Quick one: EAGAMTFHYIIEQGVCYLVLCEAA [SEC22B] 3.08

Now consider YYIPLVELVPHPETAPTTVDRTHA [CRYL1] . 3.06

Subsequent entry: QEVTEPAVVAVDRQAIFPDTWTLT [PXN] 4.06

All figures here come from the supplement of paper PMC10567573.
